# Assay system: human TIM-3 on cells (human, UniProt Q8TDQ0 22-301)
# Experiment: cell-based or functional assay
IFN-gamma release in MLR at 40 µg/ml, % of IL-2 control below 40% gives false (0); IFN-gamma release in MLR at 40 µg/ml, % of IL-2 control at or above it gives true (1).

Binder: Tim3_0026 (antibody, V domains shown) VH: QIQLVQSGPELKKPGETVKISCKASGYTFTDYSMHWVKQAPGRGLKWMGYINTETYEPTFGADFKGRFAFSLDTSATTAYLQINSLKTEDTATFFCGGGGYPAYWGQGTVVIVSA VL: DVLMTQTPLSLPVSLGDQASISCRSSRTILHSSGNTYLEWYLQKPGQSPKLLIYKVSNRFSGVPDRFSGSGSGTDFTLNISRVEAEDLGVYYCFQDSHVPFTFGTGTKLEIK
Discrete label: false (0)
//
Binder: Tim3_0033 (antibody, V domains shown) VH: QGQMHQSGAELVKPGSSVKLSCKTSGFTFSSSFISWLKQKPGQSLEWIAWIYAATGSTSYNQKFTNKAQLTVDTSSSAAYMQFSSLTTEDSAIYYCARHAGYPHYYAMDYWGQGTSVTVSS VL: DIQMTQSPASLSASVGETVTITCRASENIFSNLAWYQQKQGKSPQLLVYSATNLGDGVPSRFSGSGSGTQFSLKINSLQPEDFGNYYCQHFYKIPFTFGTGTKLEIK
Discrete label: false (0)
//
Binder: Tim3_0030 (antibody, V domains shown) VH: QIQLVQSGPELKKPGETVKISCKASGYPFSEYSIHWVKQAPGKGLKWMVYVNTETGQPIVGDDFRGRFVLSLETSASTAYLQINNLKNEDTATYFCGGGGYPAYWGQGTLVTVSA VL: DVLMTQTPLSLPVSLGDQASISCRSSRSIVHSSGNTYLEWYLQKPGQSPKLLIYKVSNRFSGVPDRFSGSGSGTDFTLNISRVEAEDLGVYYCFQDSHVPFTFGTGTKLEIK
Discrete label: false (0)
//
Binder: Tim3_0038 (antibody, V domains shown) VH: EVQLQQSGAEPLKPGASVKLTCTTSGFNIKDYYIHWVKQRSDQGLEWIGRIDPEDGELIYAPKFQDKATITVDTSSNIAYLQLNSLTSEDTAVYYCSRDHGYVGWFAYWGQGTLVTVSA VL: NVVMTQSPKSMIMSVGQRVTLNCKASENVDTYVSWYQQKPEQSPKLLIYGASNRYTGVPDRFTGSRSATDFTLTISSVQAEDLAVYYCGQSYSYPWTFGGGTKLEFR
Discrete label: true (1)
//
Binder: Tim3_0021 (antibody, V domains shown) VH: QVQLQQSGPQLVRPGASVQISCKASGYSFTSYLLHWLKQRPGQGLEWIGMIDPSDSETRLNQKFKDKATLTVDKSSSTAYMQLSSPTSEDSAVYYCARDGYYAWYYFDCWGQGTTLTVSS VL: DIVLTQSPATLSVTPGDRVSLSCRASQSIGNNLHWYQQKSHESPRLLIKYASHSISGIPSKFSGTGSGTDFTLSFNSVETEDFGMYFCQQSNSWPLTFGAGTKLELK
Discrete label: true (1)
//
Binder: Tim3_0016 variant (Tim3_0018) (antibody, V domains shown, also called TIM3-0016 variant (0018); aTim3 0018) VH: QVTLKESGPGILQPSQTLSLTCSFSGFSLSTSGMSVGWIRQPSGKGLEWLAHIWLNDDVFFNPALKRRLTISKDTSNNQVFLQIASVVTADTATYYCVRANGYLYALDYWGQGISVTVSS VL: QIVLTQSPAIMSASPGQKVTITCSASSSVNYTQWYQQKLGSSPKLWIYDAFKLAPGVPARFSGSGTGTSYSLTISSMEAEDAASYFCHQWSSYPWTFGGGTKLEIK
Discrete label: false (0)
